Target: Protein kinase C iota type (Homo sapiens) (UniProt P41743)
Sequence (P41743 whole entry): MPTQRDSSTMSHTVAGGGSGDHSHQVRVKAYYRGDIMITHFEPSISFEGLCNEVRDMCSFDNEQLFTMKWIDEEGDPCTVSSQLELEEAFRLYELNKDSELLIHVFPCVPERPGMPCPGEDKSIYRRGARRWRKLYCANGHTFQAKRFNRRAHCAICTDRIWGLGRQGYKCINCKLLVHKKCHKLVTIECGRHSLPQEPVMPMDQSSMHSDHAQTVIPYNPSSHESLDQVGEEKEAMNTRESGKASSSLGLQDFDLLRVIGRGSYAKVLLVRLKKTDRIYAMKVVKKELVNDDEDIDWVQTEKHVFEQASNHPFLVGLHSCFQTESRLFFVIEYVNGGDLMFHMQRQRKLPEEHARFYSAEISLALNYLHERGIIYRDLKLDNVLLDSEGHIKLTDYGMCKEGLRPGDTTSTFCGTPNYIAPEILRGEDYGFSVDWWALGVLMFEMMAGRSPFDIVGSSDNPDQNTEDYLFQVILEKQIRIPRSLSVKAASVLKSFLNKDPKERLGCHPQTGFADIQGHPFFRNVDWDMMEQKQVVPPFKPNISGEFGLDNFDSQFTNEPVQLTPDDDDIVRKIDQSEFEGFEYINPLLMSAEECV
Details: at 1 µM
Mark 1.0 only for residual activity values smaller than 90%; exact matches and larger values are 0.0.

These solved cases illustrate the format of a correct answer.
smilesStr | group
O=c1cc(N2CCNCC2)oc2c(-c3ccccc3)cccc12 | 0.0
Nc1ncnc2c1c(-c1ccc(Oc3ccccc3)cc1)cn2C1CCCC1 | 1.0
CCCC(=O)Oc1ccc2[nH]c(C(=O)c3cc4ccccc4[nH]3)cc2c1 | 0.0
Nc1ncnc2[nH]nc(Nc3ccc(F)cc3)c12 | 0.0
O=c1cc(N2CCOCC2)oc2c1ccc1ccccc12 | 1.0

Request: Is it true that residual activity reported for COc1ccc(CNC(=O)Nc2ncc([N+](=O)[O-])s2)cc1 is less than 90%?
Response: 0.0

Request: Similarly, Cn1sc(=O)n(Cc2ccccc2)c1=O ?
Response: 1.0

Request: Similarly, O=C(c1ccccc1)c1ccc(N2CCOCC2)cc1O ?
Response: 1.0

Request: Similarly, Nc1ncnc2c1cnn2-c1ccccc1 ?
Response: 0.0

Request: Similarly, CN(C)S(=O)(=O)c1ccc2c(c1)/C(=C/c1cc3c([nH]1)CCCC3)C(=O)N2 ?
Response: 0.0

Request: Similarly, O=C(O)/C=C/c1cc(Br)c(Br)c(Br)c1Br ?
Response: 0.0
